# assay.summary: control 3'UTR Renilla luciferase suppression, dose response, counter-screen for Shn3 inhibitor project, cell-based, Clone20-Shn3RL, cherry-picked (AID 624133)
# Assay type: functional
Activity calls are given as the source filed them.
Exercise: state measured AC50 for each of the molecules provided.

For this molecule ( CCOC(=O)/C(=C\c1ccc([N+](=O)[O-])cc1)C(=O)c1cc(C(C)=O)c(Nc2ccccc2)s1 ), measured AC50 is 6.21 µM (active)

// field: AC50; key: Cc1cccc(N2CCN(C(=O)CSCc3c(C)noc3C)CC2)c1C ; value = 3.48 µM (active)

In plain terms, CC(=O)c1cn(Cc2ccccc2F)c2ccccc12 has a documented AC50 of 9.56 µM (active)

For record CCC(NC(=O)Nc1nnc(C(F)(F)F)s1)(C(F)(F)F)C(F)(F)F the listed AC50 is 4.23 µM (active)

Field AC50 (entry c1ccc(-c2cc3nc(NCC4CC4)nc(NCC4CCCCC4)c3s2)cc1 ) reads 3.12 µM (active)

The molecule identified as Cc1cc(C)n(-c2nc(Nc3ccccc3C(F)(F)F)nc(-n3nc(C)cc3C)n2)n1 registered its AC50 at 5.19 µM (active)

* * *

# measured.on: RNA-binding protein pos-1 (Caenorhabditis elegans)
# Sequence (G5EF15 whole entry, the tested form may be a part): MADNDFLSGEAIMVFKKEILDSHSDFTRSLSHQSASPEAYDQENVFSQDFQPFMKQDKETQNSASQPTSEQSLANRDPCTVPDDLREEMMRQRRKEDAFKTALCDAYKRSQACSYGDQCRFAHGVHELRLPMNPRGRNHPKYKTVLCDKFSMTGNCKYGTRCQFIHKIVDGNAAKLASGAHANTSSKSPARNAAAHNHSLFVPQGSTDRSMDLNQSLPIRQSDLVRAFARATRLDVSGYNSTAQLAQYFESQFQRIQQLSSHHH
# assay.summary: inhibitors of POS-1/mex-3 RNA binding, dose response, biochemical, fluorescence polarization (AID 1964);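 further: purified POS-1 fused to maltose binding protein made in E. coli; potency of compounds blocking POS-1 binding to fluorescent RNA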
Calls of active or inactive are those of the source.
measure: EC50

get_value(item= COc1ccc(/C=C2/N=C(c3cccs3)OC2=O)cc1OC(C)C , readout=EC50) returns > 300 µM (not active)

Please fill in: EC50 reported for O=C1C2CC=C(Cl)CC2C(=O)N1CCCCCCN1C(=O)C2CC=C(Cl)CC2C1=O (centres undefined) = 14.4 µM (active)

Record C/C(NCc1ccc2c(c1)OCO2)=C1/C(=O)NC(=O)N(c2ccccc2)C1=O , field EC50: > 300 µM (not active)

Per the records, this compound ( COc1ccc(C2C(C#N)=C(N)OC3=C2C(=O)CCC3)cc1Cn1nc(C)c([N+](=O)[O-])c1C (centres undefined) ) has EC50 equal to > 300 µM (not active)

Recorded EC50 (compound O=C(N/N=C/c1ccc(-c2ccc([N+](=O)[O-])cc2)o1)c1cccnc1 ): > 300 µM (not active)

get_value(item= Cc1cccn2c(=O)c3cc(C(=O)NCCN4CCOCC4)c(=N)n(Cc4cccnc4)c3nc12 , readout=EC50) returns > 300 µM (not active)

get_value(item= Oc1ccc(-c2cn3c(n2)SCC3)cc1O , readout=EC50) returns 3.63 µM (active)

# EC50 of CC(=O)N(C1=C(Cl)C(=O)c2ccccc2C1=O)C1CCCCC1 = 139 µM (active)

What the record says about NS(=O)(=O)c1ccc(NC(=O)COC(=O)c2cn(-c3ccccc3)nc2-c2ccc(F)cc2)cc1 : EC50 is > 300 µM (not active)

Consider Cc1ccn2c(=O)nc(SCC(=O)Nc3cc(C)on3)nc2c1 . Its measured EC50 is > 300 µM (not active)

For record CC(C)(C)OC(=O)N1CC=C2C(C#N)=C(N)C(C#N)(C#N)[C@H](c3cccnc3)[C@H]2C1 the listed EC50 is 61.7 µM (active)

get_value(item= O=C(O)c1cccc(-n2cccc2/C=N/O)c1 , readout=EC50) returns > 300 µM (not active)

Briefly, EC50 measured for COC(=O)CCC(=O)OC1(C)C(=O)C2=COC(c3ccc(OC)cc3)=CC2=C(Br)C1=O (centres undefined) : 91.5 µM (active)

Reported EC50 of CCc1cc[n+](-c2[n-]c(=O)sc2C=O)cc1 : 16.7 µM (active)
